Experimental target: CYP2C19 (Homo sapiens)
Construct: studied in liver microsomes of CD-1 mouse, Sprague Dawley rat, Beagle dog, cynomolgus monkey, and human; from tissue; host or cells: liver microsomes
Sequence (P33261 whole entry): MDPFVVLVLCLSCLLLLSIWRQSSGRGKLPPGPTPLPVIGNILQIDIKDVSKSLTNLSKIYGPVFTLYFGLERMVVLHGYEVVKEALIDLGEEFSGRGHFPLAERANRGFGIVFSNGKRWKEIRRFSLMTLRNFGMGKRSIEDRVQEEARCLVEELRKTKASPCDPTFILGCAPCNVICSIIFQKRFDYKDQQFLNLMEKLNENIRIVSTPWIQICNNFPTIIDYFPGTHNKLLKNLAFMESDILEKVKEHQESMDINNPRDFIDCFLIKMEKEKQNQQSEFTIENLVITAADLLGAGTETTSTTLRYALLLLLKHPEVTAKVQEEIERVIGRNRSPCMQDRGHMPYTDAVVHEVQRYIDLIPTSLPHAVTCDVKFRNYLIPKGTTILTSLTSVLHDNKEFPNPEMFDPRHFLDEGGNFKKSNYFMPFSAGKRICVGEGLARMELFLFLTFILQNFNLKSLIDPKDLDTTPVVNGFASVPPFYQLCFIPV
Test protocol: CYP450 enzyme inhibition in liver microsomes (cocktail probe incubation)
Assay type: in vitro ADME
Condition set: species not given, 0.05-50 μM tested
Experimental endpoint: pIC50
Answers are plain numbers, as −log10 of the molar value.

CC1(C)C(=O)C(C#N)=C[C@]2(C)C3=CC(=O)[C@@H]4[C@@H]5C[C@@](C)(n6cnnc6)CC[C@]5(C)CC[C@@]4(C)[C@]3(C)CC[C@@H]12 :: 4.77
CC1(C)C(=O)C(C#N)=C[C@]2(C)C3=CC(=O)[C@@H]4[C@@H]5C[C@@](C)(c6nnco6)CC[C@]5(C)CC[C@@]4(C)[C@]3(C)CC[C@@H]12 :: 4.88
CC1(C)C(=O)C(C#N)=C[C@]2(C)C3=CC(=O)[C@@H]4[C@@H]5C[C@@](C)(N6C(=O)CCC6=O)CC[C@]5(C)CC[C@@]4(C)[C@]3(C)CC[C@@H]12 :: 4.71
CC1(C)C(=O)C(C#N)=C[C@]2(C)C3=CC(=O)[C@@H]4[C@@H]5C[C@@](C)(c6ncco6)CC[C@]5(C)CC[C@@]4(C)[C@]3(C)CC[C@@H]12 :: 5.25
COC(=O)[C@]12CCC(C)(C)C[C@H]1[C@H]1C(=O)C=C3[C@@]4(C)C=C(C#N)C(=O)C(C)(C)[C@@H]4CC[C@@]3(C)[C@]1(C)CC2 [Control, reference compound] :: 5.28

Dear reader, for each entry below, please note its pIC50.
1. Cc1cnc([C@@]2(C)CC[C@]3(C)CC[C@]4(C)[C@H](C(=O)C=C5[C@@]6(C)C=C(C#N)C(=O)C(C)(C)[C@@H]6CC[C@]54C)[C@@H]3C2)o1
2. CC1(C)C(=O)C(C#N)=C[C@]2(C)C3=CC(=O)[C@@H]4[C@@H]5C[C@@](C)(N6CCOCC6)CC[C@]5(C)CC[C@@]4(C)[C@]3(C)CC[C@@H]12
3. CC1(C)C(=O)C(C#N)=C[C@]2(C)C3=CC(=O)[C@@H]4[C@@H]5C[C@@](C)(c6nnc(C(=O)NC7CC7)o6)CC[C@]5(C)CC[C@@]4(C)[C@]3(C)CC[C@@H]12

5.03
4.84
5.24

Dear reader, for each entry below, please note its pIC50.
1. CC1(C)C(=O)C(C#N)=C[C@]2(C)C3=CC(=O)[C@@H]4[C@@H]5C[C@@](C)(C#N)CC[C@]5(C)CC[C@@]4(C)[C@]3(C)CC[C@@H]12
2. CNC(=NC#N)NC[C@]12CCC(C)(C)C[C@H]1[C@H]1C(=O)C=C3[C@@]4(C)C=C(C#N)C(=O)C(C)(C)[C@@H]4CC[C@@]3(C)[C@]1(C)CC2
3. CC1(C)C(=O)C(C#N)=C[C@]2(C)C3=CC(=O)[C@@H]4[C@@H]5C[C@@](C)(N6CCC(O)C6)CC[C@]5(C)CC[C@@]4(C)[C@]3(C)CC[C@@H]12 (some centres unmarked)
4. CNC(=O)c1nnc([C@@]2(C)CC[C@]3(C)CC[C@]4(C)[C@H](C(=O)C=C5[C@@]6(C)C=C(C#N)C(=O)C(C)(C)[C@@H]6CC[C@]54C)[C@@H]3C2)o1
5. CC1(C)C(=O)C(C#N)=C[C@]2(C)C3=CC(=O)[C@@H]4[C@@H]5C[C@@](C)(c6nnc(C(F)(F)F)o6)CC[C@]5(C)CC[C@@]4(C)[C@]3(C)CC[C@@H]12
6. CC1(C)C(=O)C(C#N)=C[C@]2(C)C3=CC(=O)[C@@H]4[C@@H]5C[C@@](C)(N6CCCC6=O)CC[C@]5(C)CC[C@@]4(C)[C@]3(C)CC[C@@H]12
7. CC(=NC#N)NC[C@]12CCC(C)(C)C[C@H]1[C@H]1C(=O)C=C3[C@@]4(C)C=C(C#N)C(=O)C(C)(C)[C@@H]4CC[C@@]3(C)[C@]1(C)CC2

4.60
4.75
4.72
5.55
4.56
5.01
5.35

Dear reader, for each entry below, please note its pIC50.
1. Cc1nnc([C@@]2(C)CC[C@]3(C)CC[C@]4(C)[C@H](C(=O)C=C5[C@@]6(C)C=C(C#N)C(=O)C(C)(C)[C@@H]6CC[C@]54C)[C@@H]3C2)o1
2. CC1(C)C(=O)C(C#N)=C[C@]2(C)C3=CC(=O)[C@@H]4[C@@H]5C[C@@](C)(N6CCOC6=O)CC[C@]5(C)CC[C@@]4(C)[C@]3(C)CC[C@@H]12
3. CC1(C)C(=O)C(C#N)=C[C@]2(C)C3=CC(=O)[C@@H]4[C@@H]5C[C@@](C)(Cc6nnco6)CC[C@]5(C)CC[C@@]4(C)[C@]3(C)CC[C@@H]12

4.93
4.93
5.21
